target: human Fibroblast Growth Factor Receptor 1 (FGFR1), FGFR1 (gene 2260) (UniProt P11362); assay: NVS_ENZ_hFGFR1: NovaScreen (NVS) Enzymatic Assay for human Fibroblast Growth Factor Receptor 1 (FGFR1) (AID 2283159);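 as to AC50: hits lower the signal so potencies describe inhibitors of the kinase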
Sequence (P11362 whole entry, looked up): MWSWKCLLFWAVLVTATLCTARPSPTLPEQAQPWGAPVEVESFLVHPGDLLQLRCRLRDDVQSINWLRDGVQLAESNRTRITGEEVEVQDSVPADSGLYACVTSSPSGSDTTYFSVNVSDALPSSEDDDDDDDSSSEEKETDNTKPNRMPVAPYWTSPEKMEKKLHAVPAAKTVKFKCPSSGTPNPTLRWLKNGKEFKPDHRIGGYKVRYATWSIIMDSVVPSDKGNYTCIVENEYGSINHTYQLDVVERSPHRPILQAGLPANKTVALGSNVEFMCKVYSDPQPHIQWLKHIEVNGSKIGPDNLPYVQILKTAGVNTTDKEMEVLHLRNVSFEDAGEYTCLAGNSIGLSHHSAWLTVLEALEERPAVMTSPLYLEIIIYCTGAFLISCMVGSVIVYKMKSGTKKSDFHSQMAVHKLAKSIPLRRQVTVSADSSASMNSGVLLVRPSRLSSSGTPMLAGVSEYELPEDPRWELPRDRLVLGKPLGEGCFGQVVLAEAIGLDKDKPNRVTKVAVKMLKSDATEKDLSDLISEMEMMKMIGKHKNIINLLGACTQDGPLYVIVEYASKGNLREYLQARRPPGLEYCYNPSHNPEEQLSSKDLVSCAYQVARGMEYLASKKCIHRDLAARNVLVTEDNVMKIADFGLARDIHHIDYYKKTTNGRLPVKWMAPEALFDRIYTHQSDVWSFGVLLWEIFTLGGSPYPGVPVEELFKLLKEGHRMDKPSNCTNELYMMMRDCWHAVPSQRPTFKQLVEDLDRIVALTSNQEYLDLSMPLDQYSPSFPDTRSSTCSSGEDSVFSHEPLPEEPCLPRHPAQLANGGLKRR
Records with an inconclusive call do not appear. Calls of active or inactive are those of the source. The calls were made as follows: active = hit-call score of the fitted dose curve at least 0.9, where 1 is the maximum; inconclusive = response in the unintended direction; inactive = score below 0.9.
Property: AC50

Here are 4 compounds together with their reported answers.
compound_structure_string=ClCCOCCCl property=AC50 value_observed=inactive
compound_structure_string=CCNS(=O)(=O)C(F)(F)C(F)(F)C(F)(F)C(F)(F)C(F)(F)C(F)(F)C(F)(F)C(F)(F)F property=AC50 value_observed=inactive
compound_structure_string=O=C(Oc1ccc(Br)cc1)N1CCN2CCC1CC2 property=AC50 value_observed=inactive
compound_structure_string=CCN(CC)N=O property=AC50 value_observed=inactive

Reported AC50 for `Oc1ccccc1Cl` : what is it? inactive

Please give the measured AC50 for this compound: `Oc1ccc2ccc3cccc4ccc1c2c34` 14.9 µM (active)
